method summary: Tissue concentrations (plasma, brain, liver) after single oral dose 25 mg/kg in mice
Assay type: in vivo
study conditions: male, C57BL6/J, mouse, plasma, po, 25 mg/kg, 25 mg/kg p.o., 120.0 minutes, average, read-out: concentration in plasma
measured property: concentration at 120 min (ng/mL)
# output: bare number, implied unit ng/mL

Sample CC(C)(C)c1ccc(-c2nc3ccccc3[nH]2)cc1 [TQS-168, 2-(4-tert-butylphenyl)-1H-benzimidazole] — what was its concentration at 120 min?
93.4

----------
method summary: Phase 1 single ascending dose (SAD) trial, plasma pharmacokinetics (Part 1)
study conditions: male, human, in vivo, po, 180 mg, T1/2, human plasma; Regimen B: 180 mg TQS-168 MC oral suspension, fasted, single dose; geometric mean
measured property: half-life (h)
# output: bare number, implied unit h

Sample CC(C)(C)c1ccc(-c2nc3ccccc3[nH]2)cc1 — what was its half-life?
7.36
